# protocol: Stability in mouse liver microsomes
# Type: in vitro ADME
measured metric: half-life (min)
Answer in min, number only, no unit symbol.

Need half-life, item C=CC(=O)Nc1ccccc1Nc1nc(Nc2ccc(N3CCN(C)CC3)cc2)ncc1C(=O)Nc1c(C)cccc1Cl [Compound 15a]
5.2
